TARGET ENTITY: MMP-9 (Homo sapiens)
Sequence (P14780 94-707, species assumed): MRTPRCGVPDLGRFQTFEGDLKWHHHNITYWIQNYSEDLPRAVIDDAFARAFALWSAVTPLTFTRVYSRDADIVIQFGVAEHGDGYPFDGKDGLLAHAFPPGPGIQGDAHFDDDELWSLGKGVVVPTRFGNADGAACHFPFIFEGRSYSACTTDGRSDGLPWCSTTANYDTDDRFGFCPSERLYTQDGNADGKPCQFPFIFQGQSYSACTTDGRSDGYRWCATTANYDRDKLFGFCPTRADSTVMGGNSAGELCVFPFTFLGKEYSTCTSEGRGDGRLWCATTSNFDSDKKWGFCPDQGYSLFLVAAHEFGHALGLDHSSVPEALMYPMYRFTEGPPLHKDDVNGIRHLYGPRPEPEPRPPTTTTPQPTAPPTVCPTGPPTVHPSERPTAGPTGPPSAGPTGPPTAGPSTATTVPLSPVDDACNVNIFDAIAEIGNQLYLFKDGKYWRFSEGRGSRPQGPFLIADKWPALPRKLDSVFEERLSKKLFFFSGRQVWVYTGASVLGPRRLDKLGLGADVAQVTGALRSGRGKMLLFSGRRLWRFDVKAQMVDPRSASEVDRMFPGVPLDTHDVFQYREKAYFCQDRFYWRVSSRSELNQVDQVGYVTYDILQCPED
RUN DESCRIPTION: MMP inhibitory activity IC50, MMP-9
Assay type: biochemical
MEASURE NAME: IC50 (nM)

O=C(NO)[C@@H](Cc1ccccc1)NS(=O)(=O)c1ccc(-c2ccccc2)cc1; 16

* * *

TARGET ENTITY: UniProt:P03956
Sequence (P03956 100-469): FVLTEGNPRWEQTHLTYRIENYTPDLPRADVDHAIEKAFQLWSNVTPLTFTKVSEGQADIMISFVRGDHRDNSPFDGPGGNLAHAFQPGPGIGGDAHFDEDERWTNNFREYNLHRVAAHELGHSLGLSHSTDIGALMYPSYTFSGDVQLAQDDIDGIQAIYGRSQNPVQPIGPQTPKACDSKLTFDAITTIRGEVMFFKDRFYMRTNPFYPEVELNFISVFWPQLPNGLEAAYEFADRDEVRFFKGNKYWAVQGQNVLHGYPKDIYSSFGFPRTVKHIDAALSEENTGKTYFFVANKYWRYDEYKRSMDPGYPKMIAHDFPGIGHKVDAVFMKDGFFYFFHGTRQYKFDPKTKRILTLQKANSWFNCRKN
pIC50: −log10 of the molar value.
MEASURE NAME: pIC50

O=C(NO)[C@@H](Cc1ccccc1)NS(=O)(=O)c1ccc(-c2ccccc2)cc1 [BPHA]; 6.01

* * *

# collection of pIC50 values tested on UniProt P08254
# Sequence (P08254 100-477, species assumed): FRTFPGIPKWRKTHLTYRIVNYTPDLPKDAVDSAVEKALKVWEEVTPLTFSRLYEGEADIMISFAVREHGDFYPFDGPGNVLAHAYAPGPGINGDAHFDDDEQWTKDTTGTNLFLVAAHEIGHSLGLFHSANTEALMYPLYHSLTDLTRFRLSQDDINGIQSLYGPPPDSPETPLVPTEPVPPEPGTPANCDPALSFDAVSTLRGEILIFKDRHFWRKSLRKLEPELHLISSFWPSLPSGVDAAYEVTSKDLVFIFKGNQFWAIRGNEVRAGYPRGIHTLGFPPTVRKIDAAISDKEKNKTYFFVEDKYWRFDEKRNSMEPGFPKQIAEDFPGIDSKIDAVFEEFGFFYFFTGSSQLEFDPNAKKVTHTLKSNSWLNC
pIC50: −log10 of the molar value.
MEASURE NAME: pIC50

O=C(NO)[C@@H](Cc1ccccc1)NS(=O)(=O)c1ccc(-c2ccccc2)cc1; < 6.00
O=C(NO)[C@H](Cc1ccccc1)NS(=O)(=O)c1ccc(-c2ccccc2)cc1 [(−)BPHA]; < 6.00

* * *

TARGET ENTITY: MMP-14 (Homo sapiens)
MEASURE NAME: IC50 (nM)

O=C(NO)[C@@H](Cc1ccccc1)NS(=O)(=O)c1ccc(-c2ccccc2)cc1 [BPHA]; 17

Where do the numbers come from? From patent US6627411B2.
